# test-system: T1, TRCW5 antigen (CD3δε-Fc-Avi) (biotinylated (site not stated))
# T1 construct: also called recombinant CD3
# T1 sequence (chain, as listed by the source mutant limits assumed): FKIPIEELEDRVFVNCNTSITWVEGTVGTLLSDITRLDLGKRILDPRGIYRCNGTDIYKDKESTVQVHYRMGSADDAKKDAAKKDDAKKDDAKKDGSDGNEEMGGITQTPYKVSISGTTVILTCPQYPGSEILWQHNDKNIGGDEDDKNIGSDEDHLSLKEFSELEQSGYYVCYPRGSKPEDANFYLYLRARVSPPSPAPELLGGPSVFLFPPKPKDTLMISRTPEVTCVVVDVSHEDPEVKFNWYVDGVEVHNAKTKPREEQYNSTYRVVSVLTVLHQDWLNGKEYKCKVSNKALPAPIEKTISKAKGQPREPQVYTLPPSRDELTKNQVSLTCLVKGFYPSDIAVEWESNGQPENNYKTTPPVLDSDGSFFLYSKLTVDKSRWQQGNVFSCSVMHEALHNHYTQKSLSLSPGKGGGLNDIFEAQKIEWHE
# assay-text: ELISA after heat
Please go through the items and note down their % Retained 65° C..

Known results for binders:
| binder | % Retained 65° C. |
| --- | --- |
| CD3B2064 (scFv) scFv: QVQLVQSGAEVKKPGSSVKVSCKASGYTFTRSTMHWVKQAPGQGLEWIGYINPSSAYTNYAQKFQGRVTLTADKSTSTAYMELSSLRSEDTAVYYCASPQVHYDYNGFPYWGQGTLVTVSSGGSEGKSSGSGSESKSTGGSEIVLTQSPATLSASPGERVTLSCSASSSVSYMNWYQQKPGQSPRRWIYDSSKLASGVPARFSGSGSGRDYTLTISSLEPEDFAVYYCQQWSRNPPTFGGGTKVEIK | 33% |
| CD3B2045 (scFv) scFv: QVQLVQSGAEVKKPGSSVKVSCKASGYTFTRSTMHWVRQAPGQGLEWIGYINPSSAYTNYNQKFQGRVTLTADKSTSTAYMELSSLRSEDTAVYYCASPQVHYDYNGFPYWGQGTLVTVSSGGSEGKSSGSGSESKSTGGSEIVLTQSPATLSASPGERVTLSCSASSSVSYMNWYQQKPGQAPRRWIYDSSKLASGVPARFSGSGSGRDYTLTISSLEPEDFAVYYCQQWSRNPPTFGGGTKVEIK | 28% |
| CD3B2084 (scFv) scFv: QVQLVQSGAEVKKPGSSVKVSCKASGYTFTRSTMHWVRQAPGQGLEWMGYINPSSAYTNYAQKFQGRVTLTADKSTSTAYMELSSLRSEDTAVYYCASPQVHYDYNGFPYWGQGTLVTVSSGGSEGKSSGSGSESKSTGGSEIVLTQSPATLSASPGERVTLSCSASSSVSYMNWYQQKPGQAPRRLIYDSSKLASGVPARFSGSGSGRDYTLTISSLEPEDFAVYYCQQWSRNPPTFGGGTKVEIK | 9% |
| CD3B2087 (scFv) scFv: QVQLVQSGAEVKKPGSSVKVSCKASGYTFTRSTMHWVRQAPGQGLEWMGYINPSSAYTNYAQKFQGRVTLTADKSTSTAYMELSSLRSEDTAVYYCASPQVHYDYNGFPYWGQGTLVTVSSGGSEGKSSGSGSESKSTGGSEIVLTQSPATLSASPGERVTLSCSASSSVSYMNWYQQKPGTAPRRLIYDSSKLASGVPARFSGSGSGRDYTLTISSLEPEDFAVYYCQQWSRNPPTFGGGTKVEIK | 5% |

Record summary for CD3B2056 (scFv) scFv: QVQLVQSGAEVKKPGSSVKVSCKASGYTFTRSTMHWVRQAPGQGLEWIGYINPSSAYTNYNQKFQGRVTLTADKSTSTAYMELSSLRSEDTAVYYCASPQVHYDYNGFPYWGQGTLVTVSSGGSEGKSSGSGSESKSTGGSEIVLTQSPATLSASPGERVTLSCSASSSVSYMNWYQQKPGQSPRRLIYDSSKLASGVPARFSGSGSGRDYTLTISSLEPEDFAVYYCQQWSRNPPTFGGGTKVEIK : reported % Retained 65° C. = 9%
